assay: Octanol-water partition coefficient, log P of the compound; type: physicochemical
MEASURE: logP
Lab note: write the figure by itself, no unit.

Prompt: Query: logP; subject: COC(=O)CN1C(=O)c2c(C)nc3ccc(F)cc3c2C1=O
Completion: 1.87

Prompt: Same question for Cc1nc2ccc(S(=O)(=O)NCCO)cc2c2c1C(=O)N(c1c(C)nn(C)c1C)C2=O please.
Completion: 1.96

Prompt: Would you kindly repeat that for Cc1nc2ccc(S(=O)(=O)N3CCOCC3)cc2c2c1C(=O)NC2=O ?
Completion: 0.584

Prompt: Same question for COC(=O)CN1C(=O)c2c(C)nc3ccccc3c2C1=O please.
Completion: 1.73

Prompt: What do you get for COCCNS(=O)(=O)c1ccc2nc(C)c3c(c2c1)C(=O)N(c1c(C)nn(C)c1C)C3=O ?
Completion: 2.24

Prompt: How about Cc1nc2ccc(S(=O)(=O)N3CCCC3COc3ccccc3)cc2c2c1C(=O)N(c1c(C)nn(C)c1C)C2=O (stereo unspecified) ?
Completion: 4.67

Prompt: // next record COC(=O)CCN1C(=O)c2c(C)nc3ccc(Br)cc3c2C1=O
Completion: 2.71

Prompt: Same lookup for COC(=O)CN1C(=O)c2c(C)nc3ccc(S(=O)(=O)N4CCOCC4)cc3c2C1=O , please.
Completion: 0.404

Prompt: COC(=O)CN1C(=O)c2c(C)nc3ccc(Br)cc3c2C1=O , same question.
Completion: 2.53

Prompt: Quick one: Cc1nc2ccc(S(=O)(=O)N3CCOCC3)cc2c2c1C(=O)N(c1c(C)nn(C)c1C)C2=O
Completion: 2.31

Prompt: Another: COC(=O)CCN1C(=O)c2c(C)nc3ccccc3c2C1=O
Completion: 1.92

Prompt: How about this compound: Cc1ccccc1N1C(=O)c2c(C)nc3ccccc3c2C1=O
Completion: 4.54

Prompt: Ok, now Cc1nc2ccc(Br)cc2c2c1C(=O)N(c1c(C)nn(C)c1C)C2=O
Completion: 4.43

Prompt: // next record Cc1nc2ccc(S(=O)(=O)N3CCOCC3)cc2c2c1C(=O)N(C)C2=O
Completion: 0.83

Prompt: Okay, and Cc1nc2ccc(F)cc2c2c1C(=O)NC2=O ?
Completion: 2.05

Prompt: Also need Cc1nc2ccc(S(N)(=O)=O)cc2c2c1C(=O)N(c1c(C)nn(C)c1C)C2=O , thanks.
Completion: 2.16

Prompt: // next record COC(=O)C(Cc1ccccc1)NS(=O)(=O)c1ccc2nc(C)c3c(c2c1)C(=O)N(c1c(C)nn(C)c1C)C3=O (stereo unspecified)
Completion: 4.2

Prompt: # repeat for Cc1ccccc1N1C(=O)c2c(C)nc3ccc(S(=O)(=O)N4CCOCC4)cc3c2C1=O
Completion: 3.21

Prompt: Param item: Cc1ccccc1N1C(=O)c2c(C)nc3ccc(Br)cc3c2C1=O
Completion: 5.33

Prompt: Quick one: Cc1nc2ccc(C#N)cc2c2c1C(=O)N(c1c(C)nn(C)c1C)C2=O
Completion: 3.68

Prompt: Cc1nc2ccc(Br)cc2c2c1C(=O)N(C)C2=O , same question.
Completion: 2.95

* * *

assay: Octanol-water partition coefficient, log P of the compound; assay type: physicochemical
Provide the recorded logP for the entries that follow.
Number only, no unit.

Prompt: Query (molecule): COC(=O)CCN1C(=O)c2c(C)nc3ccc(S(=O)(=O)N4CCOCC4)cc3c2C1=O ; field requested: logP
Completion: 0.585

Prompt: Next record, please: Cc1nc2ccc(Br)cc2c2c1C(=O)NC2=O
Completion: 2.71

Prompt: Item: COC(=O)CCN1C(=O)c2c(C)nc3ccc(F)cc3c2C1=O
Completion: 2.06

Just for reference, ChEMBL document CHEMBL3046722 is where these values come from.
